Listed below: activity at 10 µM values for each entry.
test system: MDA-MB-231 breast cancer cells; assay: Wound healing assay (scratch method), cell migration; type: cell-based, human; conditions: Homo sapiens; percent relative migration at 10 μM after 24 h, relative to control, MDA-MB-231
Response body: numeric value in %, unit text excluded.

# query: activity at 10 µM | item CCn1c2ccccc2c2cc(NC(=O)C3CCCCC3C(=O)NCCN3CCOCC3)ccc21 (centres unmarked) [Compound 14g] | system: MDA-MB-231 breast cancer cells
99

# query: activity at 10 µM | item CCn1c2ccccc2c2cc(NC(=O)C3CCCCC3C(=O)NCCCN3CCOCC3)ccc21 (centres unmarked) [Compound 14h] | system: MDA-MB-231 breast cancer cells
100

# query: activity at 10 µM | item "CCn1c2ccccc2c2cc(NC(=O)c3cccnc3N3CCOCC3)ccc21" | system: MDA-MB-231 breast cancer cells
68

# query: activity at 10 µM | item "CCN(CC)CCNC(=O)c1cccnc1Nc1ccc2c(c1)c1ccccc1n2CC" | system: MDA-MB-231 breast cancer cells
99

# query: activity at 10 µM | item "CCn1c2ccccc2c2cc(Nc3ncccc3C(=O)NCCN3CCN(C(=O)OC(C)(C)C)CC3)ccc21" | system: MDA-MB-231 breast cancer cells
95

# query: activity at 10 µM | item "CCn1c2ccccc2c2cc(Nc3ncccc3NC(=O)CCN3CCCCC3)ccc21" | system: MDA-MB-231 breast cancer cells
99

# query: activity at 10 µM | item CCn1c2ccccc2c2cc(NC(=O)c3nccnc3C(=O)NCCN3CCOCC3)ccc21 [Compound 14a] | system: MDA-MB-231 breast cancer cells
91

Source: patent US11446299B2
